Reference source for all entries: ChEMBL document CHEMBL3407409

assayedTarget: Carbonic anhydrase 2 (Bos taurus) (UniProt P00921)
Sequence (P00921 2-260 limits assumed): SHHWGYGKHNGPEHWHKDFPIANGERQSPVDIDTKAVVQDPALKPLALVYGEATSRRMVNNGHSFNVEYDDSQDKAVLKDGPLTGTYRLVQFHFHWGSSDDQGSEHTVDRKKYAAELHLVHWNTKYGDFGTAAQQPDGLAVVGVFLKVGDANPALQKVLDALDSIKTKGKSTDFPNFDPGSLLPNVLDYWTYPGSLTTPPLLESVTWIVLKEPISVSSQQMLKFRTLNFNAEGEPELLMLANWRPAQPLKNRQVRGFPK
testSummary: Inhibition of purified bovine erythrocyte carbonic anhydrase 2 using 4-PNA as substrate preincubated for 15 mins by spectrophotometry
Activity calls are given as the source filed them. The calls are words filed in the database; no cut-off is given here.

# molecularString, assayedTarget, inhibition
rows = [
    ("CCOC(=O)C1=C(C)NC(C)=C(C(=O)OCC)C1c1cccc([N+](=O)[O-])c1", "Carbonic anhydrase 2 (Bos taurus) (UniProt P00921)", "11.7%"),
    ("CCOC(=O)C1=C(C)NC(C)=C(C(=O)OCC)C1c1cccs1", "Carbonic anhydrase 2 (Bos taurus) (UniProt P00921)", "inactive"),
    ("CCOC(=O)C1=C(C)NC(C)=C(C(=O)OCC)C1c1ccc(OC)cc1", "Carbonic anhydrase 2 (Bos taurus) (UniProt P00921)", "inactive"),
    ("CCOC(=O)C1=C(C)NC(C)=C(C(=O)OCC)C1c1ccc([N+](=O)[O-])cc1", "Carbonic anhydrase 2 (Bos taurus) (UniProt P00921)", "9.7%"),
]

---

Tested on: Serpentes
testSummary: Inhibition of snake venom phosphodiesterase-1 using bis-(p-nitropheny1) phosphate as substrate preincubated for 30 mins by spectrophotometry
Can you tell me inhibition for the items I'm about to list?
One number for each entry, in %.

Completed entries (count: 2):
# molecularString, experimentalReadout, u, measuredResult
rows = [
    ("CCOC(=O)C1=C(C)NC(C)=C(C(=O)OCC)C1c1cccs1", "inhibition", "%", 8),
    ("CCOC(=O)C1=C(C)NC(C)=C(C(=O)OCC)C1c1ccc(OC)cc1", "inhibition", "%", 8.1),
]

Batch request: inhibition per item, same order as input.
1. CCOC(=O)C1=C(C)NC(C)=C(C(=O)OCC)C1c1cccc([N+](=O)[O-])c1
2. CCOC(=O)C1=C(C)NC(C)=C(C(=O)OCC)C1c1ccc([N+](=O)[O-])cc1

Given back:
11.4
20.3

---

Below are molecules with their pIC50 as measured on Alpha-glucosidase MAL12 (Saccharomyces cerevisiae S288c).
Give bare numbers, as −log10 of the molar value.

Completed entries (count: 3):
# molecularString, assayedTarget, measuredResult
rows = [
    ("CCOC(=O)C1=C(C)NC(C)=C(C(=O)OCC)C1c1ccc([N+](=O)[O-])cc1", "Alpha-glucosidase MAL12 (Saccharomyces cerevisiae S288c)", 4.29),
    ("CCOC(=O)C1=C(C)NC(C)=C(C(=O)OCC)C1c1cccs1", "Alpha-glucosidase MAL12 (Saccharomyces cerevisiae S288c)", 4.13),
    ("CCOC(=O)C1=C(C)NC(C)=C(C(=O)OCC)C1c1cccc([N+](=O)[O-])c1", "Alpha-glucosidase MAL12 (Saccharomyces cerevisiae S288c)", 4.46),
]

Batch request: pIC50 per item, same order as input.
1. CCOC(=O)C1=C(C)NC(C)=C(C(=O)OCC)C1c1ccc(OCC)cc1
2. CCOC(=O)C1=C(C)NC(C)=C(C(=O)OCC)C1c1ccc(C)cc1

Given back:
[3.91, 3.93]

Asked: Give the measured pIC50 for `CCOC(=O)C1=C(C)NC(C)=C(C(=O)OCC)C1c1ccc(OC)cc1`
Given back: 4.19

---

assayedTarget: UniProt P53341
testSummary: Competitive inhibition of Saccharomyces cerevisiae alpha-glucosidase using p-nitrophenyl alpha-D-glucopyranoside as substrate preincubated for 15 mins by Lineweaver-Burk plot method
experimentalReadout: pKi
Answers are plain numbers, as −log10 of the molar value.

Asked: Give the measured pKi for `CCOC(=O)C1=C(C)NC(C)=C(C(=O)OCC)C1c1ccc([N+](=O)[O-])cc1`
Given back: 4.18

---

assayedTarget: Alpha-glucosidase MAL12 (Saccharomyces cerevisiae S288c, UniProt P53341)
Sequence (P53341 whole entry): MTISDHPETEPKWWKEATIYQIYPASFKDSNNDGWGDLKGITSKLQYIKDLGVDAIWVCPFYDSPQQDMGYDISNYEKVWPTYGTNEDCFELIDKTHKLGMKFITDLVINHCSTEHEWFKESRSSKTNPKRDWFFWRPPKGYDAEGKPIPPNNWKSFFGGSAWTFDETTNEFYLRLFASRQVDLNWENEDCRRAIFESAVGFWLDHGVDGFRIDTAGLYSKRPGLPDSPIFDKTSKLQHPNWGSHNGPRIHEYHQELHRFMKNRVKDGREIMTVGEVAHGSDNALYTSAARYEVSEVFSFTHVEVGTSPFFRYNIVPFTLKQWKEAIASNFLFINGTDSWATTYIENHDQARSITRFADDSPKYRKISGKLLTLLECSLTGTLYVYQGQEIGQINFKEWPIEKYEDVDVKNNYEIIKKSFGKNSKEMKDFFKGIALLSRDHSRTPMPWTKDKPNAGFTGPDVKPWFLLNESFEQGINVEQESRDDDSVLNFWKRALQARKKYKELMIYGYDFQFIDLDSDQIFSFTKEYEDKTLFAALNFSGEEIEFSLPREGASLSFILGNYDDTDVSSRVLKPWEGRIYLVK
testSummary: Non-competitive inhibition of Saccharomyces cerevisiae alpha-glucosidase using p-nitrophenyl alpha-D-glucopyranoside as substrate preincubated for 15 mins by Lineweaver-Burk plot method
experimentalReadout: Ki (µM)
Numbers only, in µM.

Asked: Give Ki; test system Alpha-glucosidase MAL12 (Saccharomyces cerevisiae S288c, UniProt P53341); molecule `CCOC(=O)C1=C(C)NC(C)=C(C(=O)OCC)C1c1cccc([N+](=O)[O-])c1`
Given back: 25

---

assayedTarget: Beta-glucuronidase (Homo sapiens)
testSummary: Inhibition of beta-glucuronidase (unknown origin) using p-nitrophenyl-beta-D-glucuronide as substrate preincubated for 30 mins by spectrophotometry
experimentalReadout: inhibition

Completed entries (count: 2):
# molecularString, assayedTarget, inhibition
data = [
    ("CCOC(=O)C1=C(C)NC(C)=C(C(=O)OCC)C1c1ccc([N+](=O)[O-])cc1", "Beta-glucuronidase (Homo sapiens)", "14.1%"),
    ("CCOC(=O)C1=C(C)NC(C)=C(C(=O)OCC)C1c1ccc(OC)cc1", "Beta-glucuronidase (Homo sapiens)", "12.4%"),
]

Shift focus to the following entry.
Asked: Give inhibition; test system Beta-glucuronidase (Homo sapiens); molecule `CCOC(=O)C1=C(C)NC(C)=C(C(=O)OCC)C1c1cccc([N+](=O)[O-])c1`
Given back: 22.3%
